- System: NCI-H322M lung
- measurement_description: NCI-60 one-dose screen, 48 h
- settings: 10 µM unless noted
Compounds without any hit were thinned out: in the full panel of roughly 83,000, 20% have a hit. Activity calls are given as the source filed them. Rule for the calls: active = growth percent below 10; inactive = the rest.
Hi there, use one of these labels in your reply, thanks! 1 (yes) for active, 0 (no) for inactive

Here's what some known entries look like.
entry_smiles	answer_label
Clc1ccc2c(N/N=C/c3c[nH]c4ccccc34)ccnc2c1	1 (yes)
CCC(=C(c1ccc(OCCN2CCCCCC2)cc1)c1ccc(OCCN2CCCCCC2)cc1)c1ccc(Cl)cc1	0 (no)
CN1CCN(CCNc2nc(-c3cccc(NS(=O)(=O)c4cccc5c(N(C)C)cccc45)c3)cs2)CC1	0 (no)
CC[C@]12C=CCN3CC[C@@]4(c5ccc(OC)cc5N(C)[C@H]4[C@@](O)(C(=O)OC)[C@@H]1OC(=O)CCN1CCc4ccccc4C1)[C@@H]32	0 (no)

Dear colleague, could you share the recorded outcome for `O=C(/C=C/c1cccc(Br)c1)c1cccc(OCCCCOc2cccc(C(=O)/C=C/c3cccc(Br)c3)c2)c1` when you have a moment?
0 (no)
